target: human CD3 ed (human, UniProt P07766 23-126; P04234 22-105, limits assumed); assay: SPR Biacore T200, IgG captured on protein A, 25 C;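 further: antigens diluted in ACES running buffer at pH 7.4 were flowed over antibodies held on a CM3 chip bearing amine-coupled protein A, with buffer alone serving as blank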
Sequence (P07766 23-126 limits assumed, chain 1 of 2): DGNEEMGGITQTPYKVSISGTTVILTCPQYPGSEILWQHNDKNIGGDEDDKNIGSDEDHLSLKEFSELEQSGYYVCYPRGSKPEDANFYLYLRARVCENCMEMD
Sequence (P04234 22-105 limits assumed, chain 2 of 2): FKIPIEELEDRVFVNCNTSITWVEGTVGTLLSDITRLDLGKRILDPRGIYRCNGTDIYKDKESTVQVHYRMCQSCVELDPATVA
quantity name: kon (M⁻¹ s⁻¹)

>  <binder>
dBBDu167/L091 (antibody, V domains shown, IgG format; constant regions not specified) VH: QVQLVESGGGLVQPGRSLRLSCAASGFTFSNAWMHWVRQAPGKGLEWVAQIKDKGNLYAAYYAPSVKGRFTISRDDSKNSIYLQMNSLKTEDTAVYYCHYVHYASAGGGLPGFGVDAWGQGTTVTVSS VL: DIVMTQSPLSLPVTPGEPASISCSASESLLHNNRHTYLHWYQQKPGQAPRLLIYRVSNRFNGVPDRFSGSGSGTDFTLKISRVEAEDVGVYYCGQGTQVPFTFGQGTKLEIK

>  <value units>
M⁻¹ s⁻¹

>  <reported result>
52400

$$$$
>  <binder>
dBBDu189/L126 (antibody, V domains shown, IgG format; constant regions not specified) VH: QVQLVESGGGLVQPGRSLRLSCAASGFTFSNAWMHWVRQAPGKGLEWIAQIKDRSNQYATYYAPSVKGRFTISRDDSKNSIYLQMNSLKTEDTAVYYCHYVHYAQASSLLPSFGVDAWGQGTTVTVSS VL: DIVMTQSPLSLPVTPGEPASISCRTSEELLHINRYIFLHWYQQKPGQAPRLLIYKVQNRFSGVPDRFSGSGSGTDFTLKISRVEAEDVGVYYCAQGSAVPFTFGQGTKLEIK

>  <value units>
M⁻¹ s⁻¹

>  <reported result>
10900

$$$$
>  <binder>
dBBDu193/L132 (antibody, V domains shown, IgG format; constant regions not specified; also called dBBDu_193 dBBDu.L132) VH: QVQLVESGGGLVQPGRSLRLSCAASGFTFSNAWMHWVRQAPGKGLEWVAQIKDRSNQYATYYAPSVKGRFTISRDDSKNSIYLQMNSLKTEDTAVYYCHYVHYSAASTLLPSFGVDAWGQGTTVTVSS VL: DIVMTQSPLSLPVTPGEPASISCQTSEELVHINRFIFLHWYQQKPGQAPRLLIYKVSNRFSGVPDRFSGSGSGTDFTLKISRVEAEDVGVYYCAQGTSVPFTFGQGTKLEIK

>  <value units>
M⁻¹ s⁻¹

>  <reported result>
9890

$$$$
>  <binder>
dBBDu183/L063 (antibody, V domains shown, IgG format; constant regions not specified) VH: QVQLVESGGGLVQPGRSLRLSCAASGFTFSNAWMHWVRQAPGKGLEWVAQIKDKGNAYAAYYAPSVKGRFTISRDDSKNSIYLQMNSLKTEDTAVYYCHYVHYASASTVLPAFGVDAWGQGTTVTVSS VL: DIVMTQSPLSLPVTPGEPASISCRSSQELVHTNRHTYLHWYQQKPGQAPRLLIYKVSNRFPGVPDRFSGSGSGTDFTLKISRVEAEDVGVYYCAQGTQVPFTFGQGTKLEIK

>  <value units>
M⁻¹ s⁻¹

>  <reported result>
56900

$$$$
>  <binder>
dBBDu183/L072 (antibody, V domains shown, IgG format; also called H183L072) VH: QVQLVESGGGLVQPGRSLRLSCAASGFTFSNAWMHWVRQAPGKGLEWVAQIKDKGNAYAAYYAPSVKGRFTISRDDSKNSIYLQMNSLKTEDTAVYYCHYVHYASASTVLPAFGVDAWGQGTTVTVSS VL: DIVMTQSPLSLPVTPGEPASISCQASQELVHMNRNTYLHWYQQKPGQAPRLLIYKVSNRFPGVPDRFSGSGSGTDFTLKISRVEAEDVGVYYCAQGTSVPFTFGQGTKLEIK

>  <value units>
M⁻¹ s⁻¹

>  <reported result>
36100

$$$$
>  <binder>
dBBDu186/L106 (antibody, V domains shown, IgG format; constant regions not specified) VH: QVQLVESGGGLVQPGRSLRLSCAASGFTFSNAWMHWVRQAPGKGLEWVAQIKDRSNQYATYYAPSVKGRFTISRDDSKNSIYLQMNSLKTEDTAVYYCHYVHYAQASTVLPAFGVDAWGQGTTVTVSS VL: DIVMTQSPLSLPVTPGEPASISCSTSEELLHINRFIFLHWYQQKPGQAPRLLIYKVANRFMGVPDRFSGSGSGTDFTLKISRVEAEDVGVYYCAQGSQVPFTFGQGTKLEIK

>  <value units>
M⁻¹ s⁻¹

>  <reported result>
10300

$$$$
>  <binder>
dBBDu189/L112 (antibody, V domains shown, IgG format; constant regions not specified) VH: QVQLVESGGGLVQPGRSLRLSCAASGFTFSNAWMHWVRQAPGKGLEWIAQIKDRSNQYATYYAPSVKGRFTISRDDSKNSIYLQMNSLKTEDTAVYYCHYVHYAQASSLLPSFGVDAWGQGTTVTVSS VL: DIVMTQSPLSLPVTPGEPASISCTSDQELVHMNRHTYLHWYQQKPGQAPRLLIYKVYNRFPGVPDRFSGSGSGTDFTLKISRVEAEDVGVYYCAQGTSVPFTFGQGTKLEIK

>  <value units>
M⁻¹ s⁻¹

>  <reported result>
30300

$$$$
